- assay.protocol: Pharmacokinetic test in SD male rats (Experimental Examples 11, 12, 15)
- Type: in vivo
- assay.setup: rat, plasma, po, 10 mg/kg, oral 10 mg/kg in Vehicle: 5% DMSO, 40% PEG400 and 55% DW (Exp. 15-2)
value.type: half-life (h)
Answers are plain numbers, in h.

Q: Query: half-life; subject: O[C@@H]1[C@H](O)CS[C@H]1n1cnc2c(NCc3cccc(Cl)c3)nc(Cl)nc21
Result: 3.34

###

- assay.protocol: Pharmacokinetic test in SD male rats (Experimental Examples 11, 12, 15)
- Type: in vivo
- assay.setup: rat, plasma, po, 10 mg/kg, oral 10 mg/kg in Vehicle: 5% DMSO, 40% PEG400 and 55% DW (Exp. 15-2)
value.type: Tmax

Q: Query: Tmax; subject: O[C@@H]1[C@H](O)CS[C@H]1n1cnc2c(NCc3cccc(Cl)c3)nc(Cl)nc21
Result: 2.42 h

###

- assay.protocol: Pharmacokinetic test in dogs (Experimental Example 14)
- Format: in vivo
- assay.setup: dog, plasma, po, 10 mg/kg, G2, PO, dissolved in a solvent
value.type: Cmax (ng/mL)
One number for each entry, in ng/mL.

Q: Query: Cmax; subject: O[C@@H]1[C@H](O)CS[C@H]1n1cnc2c(NCc3cccc(Cl)c3)nc(Cl)nc21
Result: 467

###

- assay.protocol: Plasma protein binding, rat plasma
- Format: in vitro ADME
- Method: Plasma stability and protein binding were measured using rat and human plasma.
value.type: fraction unbound
One number for each entry.

Q: Query: fraction unbound; subject: O[C@@H]1[C@H](O)CS[C@H]1n1cnc2c(NCc3cccc(Cl)c3)nc(Cl)nc21
Result: 0.098

###

- assay.protocol: Pharmacokinetic test in dogs (Experimental Example 14)
- Type: in vivo
- assay.setup: dog, plasma, po, 10 mg/kg, G3, PO, powder state in a capsule
value.type: Cmax (ng/mL)
Answers are plain numbers, in ng/mL.

Q: Query: Cmax; subject: O[C@@H]1[C@H](O)CS[C@H]1n1cnc2c(NCc3cccc(Cl)c3)nc(Cl)nc21
Result: 1140

###

- assay.protocol: Pharmacokinetic test in SD male rats (Experimental Examples 11, 12, 15)
- Format: in vivo
- assay.setup: rat, plasma, po, 10 mg/kg, oral 10 mg/kg in 0.5% MC (Exp. 15-1)
value.type: Cmax (ng/mL)
Give bare numbers, in ng/mL.

Q: Query: Cmax; subject: O[C@@H]1[C@H](O)CS[C@H]1n1cnc2c(NCc3cccc(Cl)c3)nc(Cl)nc21
Result: 5720

###

- assay.protocol: Pharmacokinetic test in SD male rats (Experimental Examples 11, 12, 15)
- Format: in vivo
- assay.setup: rat, plasma, po, 10 mg/kg, 10 mg/kg (Exp. 12-2)
value.type: AUC(0-t) (ng·h/mL)
Numbers only, in ng·h/mL.

Q: Query: AUC(0-t); subject: O[C@@H]1[C@H](O)CS[C@H]1n1cnc2c(NCc3cccc(Cl)c3)nc(Cl)nc21
Result: 26500

###

- assay.protocol: Pharmacokinetic test in SD male rats (Experimental Examples 11, 12, 15)
- Assay type: in vivo
- assay.setup: rat, plasma, iv, 5 mg/kg, I.V.
- Protocol: Intravenous administration was performed through a tube inserted into the femoral vein, and oral administration was performed using oral gavage. After the administration, the experimental animals' blood was taken at predetermined time intervals for 24 hours. Then, the blood was centrifuged to separate plasma. The plasma samples were pretreated with a suitable organic solvent, and then the concentration of the plasma samples was analyzed by LC-MS/MS. […]
value.type: AUC(0-t) (ng·h/mL)
Give bare numbers, in ng·h/mL.

Q: Query: AUC(0-t); subject: O[C@@H]1[C@H](O)CS[C@H]1n1cnc2c(NCc3cccc(Cl)c3)nc(Cl)nc21 [Example 2]
Result: 14000
